# System: HIV-1 (IIIB)
# assay protocol: inhibition of HIV-1(IIIB) (WT) induced syncytium formation in CEM cells
# Assay type: cell-based
# particulars: Human immunodeficiency virus 1, IIIB, CCRF-CEM, 96 h, Table 2, day 4 post infection, replicate values, read-out: EC50, Activity Against HIV-1 (IIIB)
pEC50: −log10 of the molar value.
Label Criterion met for high-side pEC50 (at or above 7) and Criterion not met for low-side pEC50 (below it).

> print(dat)
                              smiles.string  assigned.category
1    Cc1occc1C(=S)Nc1ccc(Cl)c(CSc2ccccn2)c1  Criterion not met
2  Cc1occc1C(=S)Nc1ccc(Cl)c(COc2c(F)c(F)c(F)c(F)c2F)c1  Criterion not met
3  Cc1occc1C(=S)Nc1ccc(Cl)c(COc2ccccc2[N+](=O)[O-])c1      Criterion met
4  Cc1occc1C(=S)Nc1ccc(Cl)c(COc2cccc(C(F)(F)F)c2)c1  Criterion not met
5  Cc1occc1C(=S)Nc1ccc(Cl)c(COc2ccccc2Cl)c1      Criterion met
6  Cc1occc1C(=O)Nc1ccc(Cl)c(COc2ccccc2C#N)c1  Criterion not met
7   Cc1occc1C(=S)Nc1ccc(Cl)c(OCc2ccccc2F)c1      Criterion met
8  Cc1occc1C(=O)Nc1ccc(Br)c(COc2c(F)ccc(F)c2F)c1      Criterion met

###

# Tested on: HIV-1/188-Leu
# assay protocol: inhibition of syncytium formation in CEM cells, HIV-1 RT mutant 188-Leu
# Assay type: cell-based
# particulars: Human immunodeficiency virus 1, CCRF-CEM, 96 h, read-out: EC50 188-Leu
measurement label: EC50 (µg/mL)

> print(dat)
                              smiles.string  measurement.label  comparator  recorded.number
1  Cc1occc1C(=S)Nc1ccc(Cl)c(COc2ccccc2[N+](=O)[O-])c1               EC50           =             1.35
2  Cc1occc1C(=S)Nc1ccc(Cl)c(COc2c(F)ccc(F)c2F)c1               EC50           =              1.5
3     Cc1ccccc1OCc1cc(NC(=S)c2ccoc2C)ccc1Cl               EC50           =              0.7
4  Cc1occc1C(=S)Nc1ccc(Cl)c(COc2ccccc2CO)c1               EC50           >                2
5   CCCc1ccccc1OCc1cc(NC(=S)c2ccoc2C)ccc1Cl               EC50           >                2
6  Cc1occc1C(=S)Nc1ccc(Cl)c(COc2cccc([N+](=O)[O-])c2)c1               EC50           >                2
7    CCc1ccccc1OCc1cc(NC(=S)c2ccoc2C)ccc1Cl               EC50           =             0.35
8  Cc1occc1C(=S)Nc1ccc(Cl)c(COc2ccc(F)cc2)c1               EC50           ≥                2
9  COc1cccc(F)c1OCc1cc(NC(=S)c2ccoc2C)ccc1Cl               EC50           =             0.53
